Test system: D. russelii venom proteases (SVMP)
assay_name: Proteolytic activity of venom and its inhibition
Format: biochemical, Daboia russelii
study_conditions: read-out: IC50 (inhibition of venom proteolytic activity); RJ (Rajasthan) venom
measured_parameter: pIC50
Scale: pIC50 equals -log10([C]), with [C] in mol/L.

Short answer for CNC(=O)[C@@H](NC(=O)[C@H](CC(C)C)[C@H](O)C(=O)NO)C(C)(C)C : pIC50 was 5.78

* * *

System: D. russelii venom proteases (SVMP)
assay_name: Proteolytic activity of venom and its inhibition
Assay type: biochemical, Daboia russelii
study_conditions: read-out: IC50 (inhibition of venom proteolytic activity); MP venom
measured_parameter: IC50 (nM)
Answer with a number only, understood to be in nM.

Short answer for CNC(=O)[C@@H](NC(=O)[C@H](CC(C)C)[C@H](O)C(=O)NO)C(C)(C)C [marimastat, Marimastat] : IC50 was 1510

Reference source for all entries: paper PMC12152178
